Tested on: T47D
Test: Antiproliferative activity against human T47D cells after 48 hrs by MTT assay
Assay type: functional, cell-based
property.name: IC50 (µM)
Write down the numeric answer in µM and omit the unit.

Give IC50 only, for `Oc1ccc(-c2nc(Cl)c(-c3ccccc3)c(Oc3ccc(OCCN4CCCC4)cc3)n2)cc1` , using T47D data.
2.73

* * *

System: MDA-MB-231
Assay: Antiproliferative activity against human MDA-MB-231 cells after 48 hrs by MTT assay
Assay type: functional, cell-based
Settings: MDA-MB-231, 48 h
property.name: pIC50
Please note pIC50 is a logarithmic value: minus log10 of concentration in mol/L. Answer with that number alone.

Kindly indicate its recorded pIC50. Item: `Oc1ccc(-c2nc(Cl)c(-c3ccccc3)c(Oc3ccc(OCCN4CCCC4)cc3)n2)cc1`
5.42
